Origin of values: patent US20050202033A1

test-system: recombinant human or murine heat shock protein 70 (hsp70) (human or murine), P0DMV8
Sequence (P0DMV8 whole entry): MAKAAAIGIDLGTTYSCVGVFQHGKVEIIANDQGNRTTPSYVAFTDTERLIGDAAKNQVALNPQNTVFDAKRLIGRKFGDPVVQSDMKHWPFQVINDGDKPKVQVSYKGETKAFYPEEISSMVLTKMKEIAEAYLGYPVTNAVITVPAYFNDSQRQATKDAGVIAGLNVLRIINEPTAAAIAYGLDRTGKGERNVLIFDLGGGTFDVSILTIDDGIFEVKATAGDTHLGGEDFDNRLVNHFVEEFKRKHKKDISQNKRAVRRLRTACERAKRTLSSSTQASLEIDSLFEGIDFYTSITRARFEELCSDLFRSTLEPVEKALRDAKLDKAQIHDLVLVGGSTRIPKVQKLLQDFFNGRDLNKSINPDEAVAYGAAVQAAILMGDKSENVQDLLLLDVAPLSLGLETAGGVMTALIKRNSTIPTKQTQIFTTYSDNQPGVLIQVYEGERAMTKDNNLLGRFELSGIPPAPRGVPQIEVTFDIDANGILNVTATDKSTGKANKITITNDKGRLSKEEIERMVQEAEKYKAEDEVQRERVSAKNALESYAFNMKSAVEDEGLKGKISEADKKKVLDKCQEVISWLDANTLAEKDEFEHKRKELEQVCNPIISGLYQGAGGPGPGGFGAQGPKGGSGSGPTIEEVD
protocol-notes: binding inhibition assay as in Example 2, on hsp70
# note: boundary value 80 µM maps to NO; Kd below it maps to YES

Prompt: Please determine if YLEPGPVTVGSGNLLRLTGW (modifications not checked) is below 80 µM in terms of Kd.
Response: YES

Prompt: Please determine if YMDGTMSQV (modifications not checked) [… (Tyrosinase 368-376, 370D)] is below 80 µM in terms of Kd.
Response: NO

Prompt: Please determine if IMDQVPFSVGSGNLLRLTGW (modifications not checked) […gsgNLLRLTGW] is below 80 µM in terms of Kd.
Response: YES

Prompt: Please determine if IMDQVPFSV (modifications not checked) [… (Gp100 209-217, T210M)] is below 80 µM in terms of Kd.
Response: NO

Prompt: Please determine if GLYDGMEHLGSGNLLRLTGW (modifications not checked) is below 80 µM in terms of Kd.
Response: YES
